Biological target: human P2X3 receptor (Homo sapiens)
Sequence (P56373 1-397): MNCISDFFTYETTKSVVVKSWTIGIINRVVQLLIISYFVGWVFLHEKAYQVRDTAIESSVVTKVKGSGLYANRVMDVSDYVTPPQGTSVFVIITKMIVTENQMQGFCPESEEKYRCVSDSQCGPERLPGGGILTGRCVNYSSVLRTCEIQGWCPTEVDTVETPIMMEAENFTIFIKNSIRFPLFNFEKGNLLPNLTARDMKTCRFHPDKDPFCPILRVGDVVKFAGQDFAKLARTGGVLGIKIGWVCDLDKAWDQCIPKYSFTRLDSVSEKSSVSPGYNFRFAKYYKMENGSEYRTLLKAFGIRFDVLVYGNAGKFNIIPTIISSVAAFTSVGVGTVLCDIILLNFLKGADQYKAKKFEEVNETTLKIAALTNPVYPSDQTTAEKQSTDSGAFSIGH
Assay: Calcium luminescence measurement: human P2X3 receptor activity inhibition (CHO-K1 cells, photoprotein readout, FLEXSTATION)
Conditions: CHO-K1 cells co-expressing human P2X3 and Ca2+ sensitive photoprotein; agonist α,β-Met-ATP; read-out: h-P2X3 IC50
Measured Quantity: IC50 (nM)

(P) CC(C)C1CN2C(=O)N(CC(=O)Nc3ccc(F)cn3)c3cc(N4CCOCC4)cnc3C2=N1 (stereo not shown) [Example 6]
(Q) COC(C)(C)c1nnc2c3nnc(N4CCN(C(=O)OC(C)(C)C)CC4)cc3n(Cc3ccc(Cl)cc3)c(=O)n12 [Example 45]
Problem: Hi there! Just curious which has the higher IC50 between P and Q . # respond with the chosen item's label
Solution: Q

(1) CC(C)(C)c1nnc2c3nnc(N4CCC(O)CC4)cc3n(Cc3ccc(Cl)cc3)c(=O)n12 [Example 55]
(2) COc1ccc(Cn2c(=O)n3c(C(C)(C)C)nnc3c3ncc(N4CCNCC4)cc32)cc1 [Example 35]
Problem: Select one. Lower IC50: 1 or 2 Output the label that corresponds to your choice.
Solution: 1

----------
Target: human P2X2/3 receptor (Homo sapiens, UniProt P56373+Q9UBL9)
Construct: expressed in transfected cells; host or cells: CHO-K1
Assay: Calcium fluorescence measurement: human P2X2/3 receptor activity inhibition (CHO-K1 cells, Fluo-8 NoWash, […])
Assay type: cell-based
Conditions: CHO-K1 cells expressing human P2RX2/X3 channel; 10µM α,β-Met-ATP; read-out: h-P2X2/3 IC50
Measured Quantity: IC50 (µM)

Below are worked cases with known answers.
>  <Compound>
CC(C)C1CN2C(=O)N(Cc3ccc(Cl)cc3)c3cc(N4CCOCC4)cnc3C2=N1 (racemic) [Example 9]

>  <IC50, µM>
7.41

$$$$
>  <Compound>
COc1ccc(Cn2c(=O)n3c(C(C)(C)C)nnc3c3ncc(N4CCCCC4)cc32)cc1 [Example 38]

>  <IC50, µM>
19.9

$$$$

(1) CC(C)(C)c1nnc2c3nnc(N4CCOCC4)cc3n(Cc3ccc(Cl)cc3)c(=O)n12 [Example 44]
(2) CC(C)C1CN2C(=O)N(CC(=O)Nc3ccc(F)cn3)c3cc(N4CCOCC4)cnc3C2=N1 (stereo not drawn) [Example 6]
Problem: When 1 and 2 are compared, which has the higher number for IC50? # reply format: chosen label
Solution: 1
(1: 3.9 µM, 2: 0.221 µM)

----------
Molecular target: human P2X3 receptor (Homo sapiens, UniProt P56373)
Sequence (P56373 1-397): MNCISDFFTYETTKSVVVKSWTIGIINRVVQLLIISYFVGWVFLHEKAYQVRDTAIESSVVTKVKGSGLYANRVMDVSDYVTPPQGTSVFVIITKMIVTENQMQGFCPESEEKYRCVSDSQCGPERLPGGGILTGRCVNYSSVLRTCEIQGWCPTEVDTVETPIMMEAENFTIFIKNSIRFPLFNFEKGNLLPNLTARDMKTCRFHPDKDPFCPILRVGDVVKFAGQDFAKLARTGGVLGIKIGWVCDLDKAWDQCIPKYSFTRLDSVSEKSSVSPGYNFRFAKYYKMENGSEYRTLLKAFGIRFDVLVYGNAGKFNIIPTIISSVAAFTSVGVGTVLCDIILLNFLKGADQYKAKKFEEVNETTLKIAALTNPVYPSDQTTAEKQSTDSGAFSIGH
Experiment: Calcium luminescence measurement: human P2X3 receptor activity inhibition (CHO-K1 cells, photoprotein readout, FLEXSTATION)
Settings: CHO-K1 cells co-expressing human P2X3 and Ca2+ sensitive photoprotein; agonist α,β-Met-ATP; read-out: h-P2X3 IC50
Measured Quantity: IC50 (nM)

>  <Compound>
CC(C)C1CN=C2c3ncc(N4CCOCC4)cc3N(Cc3ccc(Cl)cc3)C(=O)N21 (stereo not shown)

>  <IC50, nM>
703

$$$$
>  <Compound>
CC(C)(CO)C1CN2C(=O)N(Cc3ccc(Cl)cc3)c3cc(N4CCOCC4)nnc3C2=N1 (stereo not shown)

>  <IC50, nM>
41.5

$$$$
>  <Compound>
COC(C)(C)c1nnc2c3ncc(N4CCOCC4)cc3n(Cc3ccc(Cl)cc3)c(=O)n12

>  <IC50, nM>
21

$$$$

(A) CC(C)C1C(=O)N=C2c3ncc(N4CCOCC4)cc3N(Cc3ccc(Cl)cc3)C(=O)N21 (single isomer, unassigned) [Example 24]
(B) CC(C)(C)c1nc2c3ncc(N4CCCC(O)C4)cc3n(Cc3ccc(Cl)cc3)c(=O)n2n1 (stereo not shown)
(C) CC(C)C1CN2C(=O)N(Cc3ccc(Cl)cc3)c3cc(NC4CCOCC4)cnc3C2=N1 (stereo not shown)
Problem: Form: Sort by [IC50] Order [ ascending ] Put the labels in the requested order and list them out.
Solution: A, B, C

----------
Molecular target: UniProt:P56373
Assay: Calcium luminescence measurement: human P2X3 receptor activity inhibition (CHO-K1 cells, photoprotein readout, FLEXSTATION)
Conditions: CHO-K1 cells co-expressing human P2X3 and Ca2+ sensitive photoprotein; agonist α,β-Met-ATP; read-out: h-P2X3 IC50
pIC50: −log10 of the molar value.
Measured Quantity: pIC50

>  <Molecule>
COC(C)(C)C1CN2C(=O)N(Cc3ccc(Cl)cc3)c3cc(N4CCOCC4)nnc3C2=N1 (centres unmarked) [Example 18]

>  <Target Entity>
UniProt:P56373

>  <pIC50>
7.33

$$$$

(A) COc1ccc(Cn2c(=O)n3c(C(C)(C)C)nnc3c3ncc(N4CCC(OC)CC4)cc32)cc1 [Example 37]
(B) CC(C)C1C(=O)N=C2c3nnc(N4CCOCC4)cc3N(Cc3ccc(Cl)cc3)C(=O)N21 (centres unmarked) [Example 28]
Problem: Recorded pIC50 values differ for A and B ; which one is higher? Use the label to indicate which entry you chose.
Solution: B
(B: 7.78, A: 6.47)

----------
Target: human P2X3 receptor (Homo sapiens, UniProt P56373)
Sequence (P56373 1-397): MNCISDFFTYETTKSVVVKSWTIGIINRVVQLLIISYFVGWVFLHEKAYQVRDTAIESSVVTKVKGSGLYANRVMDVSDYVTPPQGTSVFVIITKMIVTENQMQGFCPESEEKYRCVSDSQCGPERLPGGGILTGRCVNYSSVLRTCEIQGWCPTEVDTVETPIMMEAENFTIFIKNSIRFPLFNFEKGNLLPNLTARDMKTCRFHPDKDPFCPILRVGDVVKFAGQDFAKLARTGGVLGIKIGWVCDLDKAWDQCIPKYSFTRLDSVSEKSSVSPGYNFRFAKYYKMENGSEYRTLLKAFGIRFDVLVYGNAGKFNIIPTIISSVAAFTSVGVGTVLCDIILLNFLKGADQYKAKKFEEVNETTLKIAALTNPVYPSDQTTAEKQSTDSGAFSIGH
Test: Calcium luminescence measurement: human P2X3 receptor activity inhibition (CHO-K1 cells, photoprotein readout, FLEXSTATION)
Conditions: CHO-K1 cells co-expressing human P2X3 and Ca2+ sensitive photoprotein; agonist α,β-Met-ATP; read-out: h-P2X3 IC50
pIC50: −log10 of the molar value.
Measured Quantity: pIC50

Below: 5 molecules and their reported pIC50.
>  <Molecule>
CC(C)(C)c1nnc2c3nnc(N4CCOCC4)cc3n(Cc3ccc(Cl)cc3)c(=O)n12

>  <pIC50>
8.17

$$$$
>  <Molecule>
COc1ccc(CN2C(=O)N3CC(C(C)C)N=C3c3ncc(N4CCOCC4)cc32)nc1 (centres unmarked)

>  <pIC50>
6.09

$$$$
>  <Molecule>
CC(C)C1C(=O)N=C2c3ncc(N4CCC(=O)CC4)cc3N(Cc3ccc(Cl)cc3)C(=O)N21 (centres unmarked)

>  <pIC50>
6.91

$$$$
>  <Molecule>
CC(C)(C)C1CN2C(=O)N(Cc3ccc(Cl)cc3)c3cc(N4CCOCC4)cnc3C2=N1 (centres unmarked)

>  <pIC50>
6.74

$$$$
>  <Molecule>
CC(C)(C)C1C(=O)N=C2c3ncc(N4CCOCC4)cc3N(Cc3ccc(Cl)cc3)C(=O)N21 (centres unmarked)

>  <pIC50>
7.17

$$$$

(P) CC(C)C1CN2C(=O)N(Cc3ccc(Cl)cc3)c3cc(N4CCNCC4)cnc3C2=N1 (centres unmarked)
(Q) CC(C)C1CN2C(=O)N(Cc3ccc(Cl)cc3)c3cc(N4CCC(N)CC4)cnc3C2=N1 (centres unmarked)
Problem: Name the one with the greater pIC50 value, either P or Q as given. Write the label of whichever entry you select.
Solution: Q
(Q: 6.19, P: 5.86)
